system_tested: TYK2 (Homo sapiens)
Construct: purchased Carna Biosciences
Sequence (P29597 whole entry): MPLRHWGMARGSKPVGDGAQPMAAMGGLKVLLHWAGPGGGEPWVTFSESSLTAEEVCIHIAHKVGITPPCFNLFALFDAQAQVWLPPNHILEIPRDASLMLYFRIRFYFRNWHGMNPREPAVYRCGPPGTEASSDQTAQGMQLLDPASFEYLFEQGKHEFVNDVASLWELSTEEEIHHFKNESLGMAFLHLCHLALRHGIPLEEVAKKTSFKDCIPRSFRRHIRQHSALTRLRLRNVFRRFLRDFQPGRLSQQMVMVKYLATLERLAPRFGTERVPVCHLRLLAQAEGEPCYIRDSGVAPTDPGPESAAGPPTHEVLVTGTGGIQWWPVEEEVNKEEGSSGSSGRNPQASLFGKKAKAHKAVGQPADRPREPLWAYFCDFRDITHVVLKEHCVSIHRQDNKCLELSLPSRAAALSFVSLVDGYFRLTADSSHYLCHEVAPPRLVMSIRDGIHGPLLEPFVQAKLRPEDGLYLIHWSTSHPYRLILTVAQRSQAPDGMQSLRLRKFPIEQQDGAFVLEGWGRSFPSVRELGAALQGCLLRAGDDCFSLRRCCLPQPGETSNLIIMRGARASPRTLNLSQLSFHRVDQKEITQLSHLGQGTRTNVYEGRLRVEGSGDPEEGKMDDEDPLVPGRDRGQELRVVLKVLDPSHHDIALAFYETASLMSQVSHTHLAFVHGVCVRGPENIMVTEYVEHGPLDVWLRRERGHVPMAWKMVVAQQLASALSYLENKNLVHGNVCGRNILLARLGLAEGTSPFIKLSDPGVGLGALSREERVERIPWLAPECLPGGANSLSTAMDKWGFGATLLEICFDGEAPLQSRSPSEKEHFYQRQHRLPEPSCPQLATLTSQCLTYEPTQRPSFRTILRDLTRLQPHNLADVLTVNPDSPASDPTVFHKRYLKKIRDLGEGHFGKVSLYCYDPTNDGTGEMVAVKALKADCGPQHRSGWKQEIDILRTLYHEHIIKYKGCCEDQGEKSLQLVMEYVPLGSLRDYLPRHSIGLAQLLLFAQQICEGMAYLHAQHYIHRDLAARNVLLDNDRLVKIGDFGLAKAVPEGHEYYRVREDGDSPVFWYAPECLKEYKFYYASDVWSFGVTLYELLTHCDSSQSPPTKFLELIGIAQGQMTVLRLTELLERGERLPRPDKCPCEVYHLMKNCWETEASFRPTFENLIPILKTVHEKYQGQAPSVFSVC
measurement_description: Lance Ultra Kinase Assay, recombinant TYK2
Assay type: biochemical
recorded_conditions: 5 mM ATP
measurement_type: pIC50
Bear in mind: pIC50 is minus log10 of a mol/L concentration; give just that figure.

Give pIC50 for COC[C@H](C(=O)Nc1cccc2c(-c3nc(Nc4cnn(-c5ccccc5CO)c4)ncc3F)c[nH]c12)N1CCN(C)CC1 [Example 53] tested on TYK2 (Homo sapiens).
5.78

Give pIC50 for COC[C@H](C(=O)Nc1cccc2c(-c3nc(Nc4ccc5c(c4)CCOC5=O)ncc3F)c[nH]c12)N1CCN(C)CC1 [Example 42] tested on TYK2 (Homo sapiens).
6.25

Give pIC50 for CCOC(=O)c1ccc(Nc2ncc(F)c(-c3c[nH]c4c(NC(=O)[C@@H](COC)N5CCN(C)CC5)cccc34)n2)cn1 [Example 36] tested on TYK2 (Homo sapiens).
5.34

Give pIC50 for COC[C@H](C(=O)Nc1cccc2c(-c3nc(Nc4ccc5sc(CO)nc5c4)ncc3F)c[nH]c12)N1CCN(C)CC1 [Example 38] tested on TYK2 (Homo sapiens).
6.14

Give pIC50 for COC[C@H](C(=O)Nc1cccc2c(-c3nc(Nc4cncc(C(=O)OC)c4)ncc3F)c[nH]c12)N1CCN(C)CC1 [Example 21] tested on TYK2 (Homo sapiens).
5.94
